Listed here: items and their measured growth.
system: T-47D breast; experiment: NCI-60 one-dose screen, 48 h (100 = growth as untreated, 0 = no growth, -100 = all killed); conditions: 10 µM unless noted
Compounds without any hit were thinned out: in the full panel of roughly 83,000, 20% have a hit.
Number only, in %; omit the unit.

Some solved cases for reference:
# compound, target, measure unit, test value
rows = [
    ("ClC1=C(Cl)C(Cl)=C(Cl)C1=C/C=C/c1ccccc1", "T-47D breast", "%", -4.63),
    ("COc1ccc(Nc2nccc(N3CCN(c4c5ccc(Cl)cc5nc5ccc(OC)cc45)CC3)n2)cc1", "T-47D breast", "%", 48.7),
    ("COC(=O)CCC1=C(CC(=O)OC)C(C)=N/C1=C\\c1[nH]c(-c2ccc[nH]2)cc1OC", "T-47D breast", "%", 40.1),
    ("Cc1ccc(NC(=O)Nc2ccc(-c3cccnc3)cc2N2CCC(CO)CC2)cc1", "T-47D breast", "%", 42.7),
    ("CCC(O)C(C)(C)C (stereo unspecified)", "T-47D breast", "%", 112),
    ("COc1ccc(-c2cnnn2-c2cc(OC)c3c(c2)OCO3)cc1", "T-47D breast", "%", 50.3),
    ("O=C1CN(CO)C(=O)CN1CO", "T-47D breast", "%", 107),
    ("O=C1OC(c2ccc(-c3ccccc3)cc2)=C/C1=C/c1cccs1", "T-47D breast", "%", 33.6),
]

### Prompt Quick one: growth for Nc1nc(SCC2(CCl)COC2)c2[nH]cnc2n1 ?
### Response 100

### Prompt What do you have for CO[C@H]1/C=C/O[C@@]2(C)Oc3c(C)c(O)c4c(O)c(c(/C=N/N5C(C)CN(Cc6ccccc6)CC5C)c(O)c4c3C2=O)NC(=O)/C(C)=C\C=C\[C@H](C)[C@H](O)[C@@H](C)[C@@H](O)[C@@H](C)[C@H](OC(C)=O)[C@@H]1C (stereo partly specified) ?
### Response 81.4

### Prompt What do you have for CCCCCCOc1ccc(/C=N/NC(N)=S)cc1 ?
### Response 24

### Prompt What do you have for O=C(/C=C/c1cc2ccccc2[nH]c1=O)c1ccc(O)cc1 ?
### Response 66.1

### Prompt What do you have for CCOC(=O)C(C(C)=O)c1nc2sc3cc(Cl)ccc3n2c(=N)c1C#N (stereo unspecified) ?
### Response 77.9

### Prompt What do you have for Cc1ccccc1-c1cc(Cc2ccccc2O)c(=O)[nH]n1 ?
### Response 200

### Prompt What do you have for Cc1cc(NC(=O)Nc2cc(Cl)ccc2C)no1 ?
### Response 89.4

### Prompt What do you have for OC(Cc1cccnc1)c1ccccc1 (stereo unspecified) ?
### Response 112

### Prompt What do you have for O=C1/C(=C/c2ccc([N+](=O)[O-])o2)Oc2ccc(Br)cc21 ?
### Response 58

### Prompt What do you have for CCC[C@H](N[C@@H](C)C(=O)N1[C@H](C(=O)O)C[C@@H]2CCCC[C@@H]21)C(=O)OCC ?
### Response 124

### Prompt What do you have for CCN1C(=O)c2ccc3c4c(ccc(c24)C1=O)C(=O)N(CCCNCc1ccccc1OC)C3=O ?
### Response -50.5

### Prompt What do you have for COC(=O)c1ccc2c(c1)nc(-c1ccc(O)c(OC)c1)n2-c1cc(C(C)(C)C)[nH]n1 ?
### Response 92.3

### Prompt What do you have for O=C(Nc1ccc(Cl)cc1Cl)Nc1ccc(-c2cccnc2)cc1N1CCC(CO)CC1 ?
### Response 17.5
